Please respond with reported EC50 for every item in the list.
Assay target: UniProt:P15538
Test description: G-402 cellular enzyme assay, human CYP11B1 (cortisol release)
Run conditions: G-402 cells expressing human CYP11B1; 1 μM Deoxycortisol; cortisol in supernatant after 16 h
// return numeric value only (unit: nM, not printed)

Input: # input compound: "COc1ccc2c(n1)C(C)(C)N(c1cncc(N3CC4(CN(C(=O)c5ccnn5C)C4)C3)c1)C2=O" ; wanted: its EC50
Output: 33.2

Input: Now give it for "CC(C)n1cc(C(=O)N2CC3(C2)CN(c2cncc(N4C(=O)c5ccc(Cl)cc5C4(C)C)c2)C3)cn1" too.
Output: 11.1

Input: Now consider "Cc1cc(C(=O)N2CC3(C2)CN(c2cncc(N4C(=O)c5ccc(Cl)cc5C4(C)C)c2)C3)n(C)n1" and answer again.
Output: 6.43

Input: Also check "COc1ccc2c(n1)C(C)(C)N(c1cncc(N3CC4(CN(C(=O)c5cnccc5C)C4)C3)c1)C2=O"
Output: 29.3

Input: What would you report for "Cc1nocc1C(=O)N1CC2(C1)CN(c1cncc(N3C(=O)c4ccc(Cl)cc4C3(C)C)c1)C2" ?
Output: 14

Input: Next compound: "Cn1cncc1C(=O)N1CC2(C1)CN(c1cncc(N3C(=O)c4ccc(Cl)cc4C3(C)C)c1)C2"
Output: 7.94

Input: Can you handle "Cn1ccnc1C(=O)N1CC2(C1)CN(c1cncc(N3C(=O)c4ccc(Cl)cc4C3(C)C)c1)C2" next?
Output: 1.1

Input: What would you report for "CCn1cc(C(=O)N2CCC3(CC2)CN(c2cncc(N4C(=O)c5ccc(Cl)cc5C4(C)C)c2)C3)cn1" ?
Output: 9.64

Input: Now consider "CC1(C)c2cc(Cl)ccc2C(=O)N1c1cncc(N2CC3(CN(C(=O)c4ncccn4)C3)C2)c1" and answer again.
Output: 1.75

Input: Subsequent entry: "Cc1oncc1C(=O)N1CC2(C1)CN(c1cncc(N3C(=O)c4ccc(Cl)cc4C3(C)C)c1)C2"
Output: 9.68

Input: What do you get for "CC1(C)c2cc(Cl)ccc2C(=O)N1c1cncc(N2CC3(CN(C(=O)c4cnccc4C#N)C3)C2)c1" ?
Output: 16.8

Input: What about "Cc1cncc(C(=O)N2CC3(C2)CN(c2cncc(N4C(=O)c5ccc(Cl)cc5C4(C)C)c2)C3)n1" ?
Output: 0.64

Input: Proceed to "CC(C)n1cc(C(=O)N2CC3(C2)CN(c2cncc(N4C(=O)c5ccc(C#N)cc5C4(C)C)c2)C3)cn1"
Output: 25.6

* * *

Assay target: human CYP11B1 (Homo sapiens (Human), UniProt P15538)
Sequence (P15538 25-503): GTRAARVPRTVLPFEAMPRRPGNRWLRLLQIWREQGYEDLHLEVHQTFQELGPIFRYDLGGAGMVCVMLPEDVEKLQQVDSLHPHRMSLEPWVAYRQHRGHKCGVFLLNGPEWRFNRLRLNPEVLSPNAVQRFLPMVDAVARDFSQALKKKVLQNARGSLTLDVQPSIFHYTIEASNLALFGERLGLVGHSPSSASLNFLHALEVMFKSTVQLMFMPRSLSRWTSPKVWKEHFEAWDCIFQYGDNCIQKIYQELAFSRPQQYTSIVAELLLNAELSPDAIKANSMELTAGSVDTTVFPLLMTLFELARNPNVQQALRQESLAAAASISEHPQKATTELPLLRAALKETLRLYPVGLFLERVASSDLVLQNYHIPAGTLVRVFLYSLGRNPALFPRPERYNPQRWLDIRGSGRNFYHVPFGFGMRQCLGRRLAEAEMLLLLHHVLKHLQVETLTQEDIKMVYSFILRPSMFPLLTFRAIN
Test description: G-402 cellular enzyme assay, human CYP11B1 (cortisol release)
Run conditions: G-402 cells expressing human CYP11B1; 1 μM Deoxycortisol; cortisol in supernatant after 16 h
pEC50: −log10 of the molar value.
Label not satisfied if pEC50 falls below 8; label satisfied in every other case.

Input: Quick check: does "Cn1cc(C(=O)N2CC3(C2)CN(c2cncc(N4C(=O)c5ccc(Cl)cc5C4(C)C)c2)C3)c(C(F)F)n1" have pEC50 greater than or equal to 8?
Output: not satisfied

Input: Now consider "Cc1ccncc1C(=O)N1CC2(C1)CN(c1cncc(N3C(=O)c4ccc(Cl)cc4C3(C)C)c1)C2" and answer again.
Output: not satisfied

Input: Also need "CC1(C)c2cc(Cl)ccc2C(=O)N1c1cncc(N2CC3(CN(C(=O)c4ncccc4C#N)C3)C2)c1" , thanks.
Output: satisfied

* * *

Assay target: human CYP11B1 (Homo sapiens (Human))
Test description: G-402 cellular enzyme assay, human CYP11B1 (cortisol release)
Run conditions: G-402 cells expressing human CYP11B1; 1 μM Deoxycortisol; cortisol in supernatant after 16 h
pEC50: −log10 of the molar value.
Please mark Yes if the recorded pEC50 is equal to or greater than 8, and No if it falls below.

Input: API: above_or_equal(metric=pEC50, cutoff=8) for item Cc1ccncc1C(=O)N1CC2(C1)CN(c1cncc(N3C(=O)c4ccc(C#N)cc4C3(C)C)c1)C2 [Example 14]
Output: No

Input: Param item: CC1(C)c2cc(Cl)ccc2C(=O)N1c1cncc(N2CC3(CN(C(=O)c4cocn4)C3)C2)c1 [Example 42]
Output: Yes

Input: Cc1c(C(=O)N2CC3(C2)CN(c2cncc(N4C(=O)c5ccc(Cl)cc5C4(C)C)c2)C3)cnn1C [Example 26] ?
Output: No

Input: Try CC1(C)c2cc(Cl)ccc2C(=O)N1c1cncc(N2CC3(CN(C(=O)c4cncc(C#N)c4)C3)C2)c1 [Example 36] next.
Output: No

Input: Can you handle COc1ccc2c(n1)C(C)(C)N(c1cncc(N3CC4(CN(C(=O)c5cnn(C)c5)C4)C3)c1)C2=O [Example 15] next?
Output: No

* * *

Assay target: human CYP11B2 (Homo sapiens (Human), UniProt P19099)
Sequence (P19099 25-503): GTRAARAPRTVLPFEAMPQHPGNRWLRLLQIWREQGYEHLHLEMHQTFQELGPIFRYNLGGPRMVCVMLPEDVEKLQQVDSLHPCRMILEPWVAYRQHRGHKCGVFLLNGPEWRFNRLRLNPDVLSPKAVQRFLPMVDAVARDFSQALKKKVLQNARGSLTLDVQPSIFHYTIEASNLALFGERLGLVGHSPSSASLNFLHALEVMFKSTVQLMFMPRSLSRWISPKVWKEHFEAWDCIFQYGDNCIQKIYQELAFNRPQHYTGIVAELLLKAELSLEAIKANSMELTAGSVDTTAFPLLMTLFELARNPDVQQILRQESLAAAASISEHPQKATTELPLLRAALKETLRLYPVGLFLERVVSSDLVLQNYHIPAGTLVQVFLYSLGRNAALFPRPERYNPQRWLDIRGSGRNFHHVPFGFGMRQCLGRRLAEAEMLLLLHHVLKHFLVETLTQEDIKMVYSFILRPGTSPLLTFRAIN
Test description: G-402 cellular enzyme assay, human CYP11B2 (aldosterone release)
Assay type: cell-based
Run conditions: G-402 cells expressing human CYP11B2; 1 μM Deoxycorticosterone; aldosterone in supernatant after 16 h
Measurement label: pEC50
Recall that pEC50 is obtained by taking minus log10 of the concentration measured in molar.

Input: Dear colleague, I am looking for the recorded pEC50 of the following compound: "Cc1ccncc1C(=O)N1CC2(C1)CN(c1cncc(N3C(=O)c4ccc(Cl)cc4C34CC4)c1)C2"
Output: 10.71

Input: Then "CC(C)n1cc(C(=O)N2CC3(C2)CN(c2cncc(N4C(=O)c5ccc(Cl)cc5C4(C)C)c2)C3)cn1" ?
Output: 11.08

Input: One more compound: "Cn1ccnc1C(=O)N1CC2(C1)CN(c1cncc(N3C(=O)c4ccc(Cl)cc4C3(C)C)c1)C2"
Output: 11.00

Input: Same lookup for CC1c2cc(Cl)ccc2C(=O)N1c1cncc(N2CC3(CN(C(=O)c4cnn(C)c4)C3)C2)c1 (stereo not drawn) , please.
Output: 11.11

Input: Subsequent entry: "Cc1ncc(C(=O)N2CC3(C2)CN(c2cncc(N4C(=O)c5ccc(Cl)cc5C4(C)C)c2)C3)o1"
Output: 10.74

Input: Please give the result for "CC1(C)c2cc(Cl)ccc2C(=O)N1c1cncc(N2CC3(CN(C(=O)c4cncnc4)C3)C2)c1" too.
Output: 10.27

Input: "Cn1cncc1C(=O)N1CC2(C1)CN(c1cncc(N3C(=O)c4ccc(Cl)cc4C3(C)C)c1)C2" ?
Output: 10.93

Input: Also check "Cn1cc(C(=O)N2CC3(C2)CN(c2cncc(N4C(=O)c5ccc(Cl)cc5C45CC5)c2)C3)cn1"
Output: 11.54

Input: // query: "CC1(C)c2cc(Cl)ccc2C(=O)N1c1cncc(N2CC3(CN(C(=O)c4ncccc4C#N)C3)C2)c1"
Output: 10.42

Input: Please answer likewise for "Cc1cc(C(=O)N2CC3(C2)CN(c2cncc(N4C(=O)c5ccc(Cl)cc5C4(C)C)c2)C3)n(C)n1"
Output: 9.81

Input: Subsequent entry: "COc1nccnc1C(=O)N1CC2(C1)CN(c1cncc(N3C(=O)c4ccc(Cl)cc4C3(C)C)c1)C2"
Output: 10.12

Input: Try this compound next: "Cc1nc(C)c(C(=O)N2CC3(C2)CN(c2cncc(N4C(=O)c5ccc(Cl)cc5C4(C)C)c2)C3)o1"
Output: 10.04

Input: Would you kindly repeat that for "Cc1c(C(=O)N2CC3(C2)CN(c2cncc(N4C(=O)c5ccc(Cl)cc5C4(C)C)c2)C3)cnn1C" ?
Output: 10.11

Input: Would you mind doing "Cn1cc(C(=O)N2CC3(C2)CN(c2cncc(N4C(=O)c5ccc(C#N)cc5C4(C)C)c2)C3)cn1" as well?
Output: 9.95

Input: Then "Cn1cncc1C(=O)N1CC2(C1)CN(c1cncc(N3C(=O)c4ccc(C#N)cc4C3(C)C)c1)C2" ?
Output: 10.56

Input: Same thing, different compound: "Cc1ccncc1C(=O)N1CCC2(CC1)CN(c1cncc(N3C(=O)c4ccc(Cl)cc4C3(C)C)c1)C2"
Output: 10.31

Input: Also "Cc1ocnc1C(=O)N1CC2(C1)CN(c1cncc(N3C(=O)c4ccc(Cl)cc4C3(C)C)c1)C2" , if possible.
Output: 10.83

Input: Please answer likewise for "Cc1ccncc1C(=O)N1CC2(C1)CN(c1cncc(N3C(=O)c4ccc(C#N)cc4C3(C)C)c1)C2"
Output: 10.39

Input: Also "CC1(C)c2cc(Cl)ccc2C(=O)N1c1cncc(N2CC3(CN(C(=O)c4cnccn4)C3)C2)c1" ?
Output: 10.57

Input: Try the compound "Cc1ncnc(C)c1C(=O)N1CC2(C1)CN(c1cncc(N3C(=O)c4ccc(Cl)cc4C3(C)C)c1)C2"
Output: 9.62

Input: Moving on to the next compound: "COc1ccc2c(n1)C(C)(C)N(c1cncc(N3CC4(CN(C(=O)c5cnn(C)c5)C4)C3)c1)C2=O"
Output: 10.69

Input: Consider next the compound "Cn1nccc1C(=O)N1CC2(C1)CN(c1cncc(N3C(=O)c4ccc(Cl)cc4C3(C)C)c1)C2" in the same way.
Output: 9.84

Input: Also "CC1(C)c2cc(Cl)ccc2C(=O)N1c1cncc(N2CC3(CN(C(=O)c4ncccn4)C3)C2)c1" ?
Output: 10.30

Input: Input "Cn1nccc1C(=O)N1CC2(C1)CN(c1cncc(N3C(=O)c4ccc(C#N)cc4C3(C)C)c1)C2"
Output: 9.72

Input: Now the same for "CC1(C)c2cc(Cl)ccc2C(=O)N1c1cncc(N2CC3(CN(C(=O)c4cncc(C#N)c4)C3)C2)c1"
Output: 10.34

Input: Please give the result for "CCn1cc(C(=O)N2CC3(C2)CN(c2cncc(N4C(=O)c5ccc(Cl)cc5C4(C)C)c2)C3)cn1" too.
Output: 11.52

Input: Now this one: "Cn1nccc1C(=O)N1CC2(C1)CN(c1cncc(N3C(=O)c4ccc(Cl)cc4C34CC4)c1)C2"
Output: 9.53

Input: Same lookup for "Cc1ccncc1C(=O)N1CC2(C1)CN(c1cncc(N3C(=O)c4ccc(Cl)cc4C3(C)C)c1)C2" , please.
Output: 10.86

Input: Here is the next compound: "COc1ccc2c(n1)C(C)(C)N(c1cncc(N3CC4(CN(C(=O)c5ccnn5C)C4)C3)c1)C2=O"
Output: 9.05

Input: Same again, this time with "Cc1cnc(C(=O)N2CC3(C2)CN(c2cncc(N4C(=O)c5ccc(Cl)cc5C4(C)C)c2)C3)nc1"
Output: 10.01
